Assay type: cell-based, Escherichia coli
propertyLabel: Chromogenic reaction of degrading herbicides in bacteria: MCPA

QYD48: AAD-like enzyme, SEQ ID NO. 95 (protein, Synthetic polypeptide, QYD48, D48) MTDRLEIKPLDATFGAVVTGIRLAEIDEPTWRELHATWLKYALLVFPGQHLQRDQQIAFAKRFGPLEFEMAAISNVKSDGTLRIEEDNDDMMKILKGNMGWHADSTYMPVQAKGAVFSAEEVPTIGGQTGWADMRAAYDALDEARKAQIESLQAYHSLHYSQSQLGHQTGKSDGEYSGYGLHDGPVPLRPLVKTHPETGRKSLLIGRHAHNIPGMDRDEARRLLEGLIDFACQPPRIYHHDWAAGDAVVWDNRCLLHQATPWDMTQRRIMWHSRIAGDPASESALAA : Yes
QYD56: AAD-like enzyme, SEQ ID NO. 111 (protein, Synthetic polypeptide, QYD56, D56) MARTFDVQPLDATFGAVISGVKLAALDDETWRELYATWLQYALLVFPGQHLSRDQQIAFARRFGPLEFEIIALSNVKSDGTIRSEVENDDVIKVLKGNMGWHADSTYMPVQAKGAVFTAEVVPSVGGQTGWADMRAAYDALDGATRQKVEQLSAYHSLHYSQSKLGHQHKPGSAYSGYGFHDGPVPLRPLVKTHPETGRKSLLIGRHAHNIPGMDKDESARFLEDLVASACQPPRIYHHTWAAGDAVVWDNRCLLHQATPWDMTQPRVMWHSRIAGDPLSEAALG : Yes

This collection of values is drawn from patent US20240043859A1.
